Give solubility (g/100 g solution) for every item shown.
Experiment: xn = mol fraction of the nth substance listed, in the solute-free solvent
Conditions: 283.15 K; x2 = 0.5
Numbers only.

As a guide, the following entries are already answered.
> print(dat)
                                   compound                   readout.type  meas.value
1  CC(C)C(=O)Nc1ccc([N+](=O)[O-])c(C(F)(F)F)c1 + C1CCOC1 + CC(C)O  solubility (g/100 g solution)        46.5
2  CC(C)C(=O)Nc1ccc([N+](=O)[O-])c(C(F)(F)F)c1 + CC(C)=O + CC(C)O  solubility (g/100 g solution)        45.7
3  CC(C)C(=O)Nc1ccc([N+](=O)[O-])c(C(F)(F)F)c1 + CCOC(C)=O + CC(C)O  solubility (g/100 g solution)        37.2

input: Suppose we examine the compound Cl.NC1CCSC1=O (centres undefined) + CO + CC#N ; what solubility (g/100 g solution) value has been reported?
output: 3.18
